# tested-on: hGLP-1R (Homo sapiens, UniProt P43220)
# Sequence (P43220 24-463): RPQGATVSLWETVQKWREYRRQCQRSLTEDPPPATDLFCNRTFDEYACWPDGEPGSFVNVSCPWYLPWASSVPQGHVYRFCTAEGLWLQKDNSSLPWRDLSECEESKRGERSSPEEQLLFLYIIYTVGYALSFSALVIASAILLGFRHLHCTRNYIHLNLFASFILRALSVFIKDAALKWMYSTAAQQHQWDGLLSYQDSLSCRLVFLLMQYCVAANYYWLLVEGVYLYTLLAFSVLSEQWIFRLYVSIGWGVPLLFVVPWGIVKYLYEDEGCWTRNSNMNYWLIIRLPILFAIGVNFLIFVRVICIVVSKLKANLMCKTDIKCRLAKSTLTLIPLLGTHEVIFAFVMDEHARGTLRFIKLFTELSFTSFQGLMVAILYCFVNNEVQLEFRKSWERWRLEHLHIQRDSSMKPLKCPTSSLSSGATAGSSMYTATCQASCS
# assay-name: cell-based or functional assay
# Relative cAMP EC50 >= 3 nM gives Condition met, anything below gives Condition not met

Query :: Hello, I need to know if YXQGTFTSDFSXXLDKKAQXAFIEWLLEGGHSSGEPPPSGE (synthetic construct; SITE 2: note = 2-Aminoisobutyric Acid; SITE 12: note = L-ornithine; SITE 13: note = alpha-methyl-leucine; SITE 17: note = Lysine is chemically modified through conjugation of the epsilon-amino group of the Lysine side chain with (2-[2-(2-Amino-ethoxy)-ethoxy]-acetyl)-(gamma-Glu)) [Example 124] has measured Relative cAMP EC50 not below 3 nM. Thanks!
Result :: Condition met

Origin of the recorded values: patent US20240270821A1
